System under test: Tubulin (Homo sapiens) (UniProt P68371+Q9H4B7+P0DPH7+P68366+Q13509+Q71U36+P04350+Q3ZCM7+P07437+P68363+Q9BQE3+Q6PEY2+Q13885+Q9BVA1+Q9BUF5)
Method notes: Inhibition of tubulin polymerization at 20 uM
Format: protein-complex assay
Property: inhibition (%)

Structure as smiles: COc1cc2cc(OC)c1OCCCCCCn1ccc3cc(ccc31)[C@@H](OC(C)=O)[C@H]2OC(C)=O
Measure unit: %
Reported result: 9
--
Structure as smiles: COc1cc2cc(OC)c1OCCCCCCn1ccc3cc(ccc31)[C@H](OC(C)=O)[C@H]2OC(C)=O
Measure unit: %
Reported result: 8
--
Structure as smiles: COc1cc2cc(OC)c1OCCCCCCn1ccc3cc(ccc31)[C@H](O)[C@H]2O
Measure unit: %
Reported result: 9
--
Structure as smiles: COc1cc2cc(OC)c1OCCCCCCn1ccc3cc(ccc31)[C@@H](O)[C@H]2O
Measure unit: %
Reported result: 11

---

System under test: Tubulin
Method notes: Inhibition of tubulin polymerization
pIC50: −log10 of the molar value.
Property: pIC50

Some solved entries appear below for comparison.
Structure as smiles: COc1ccc(C[C@@H](O)c2cc(OC)c(OC)c(OC)c2)cc1O
pIC50: 5.30
--
Structure as smiles: COc1ccc(/C=C\c2cc(OC)c(OC)c(OC)c2)cc1
pIC50: 5.66

a = COc1ccc([C@@H]2OCO[C@H]2c2cc(OC)c(OC)c(OC)c2)cc1O
b = COc1ccc([C@H](O)[C@@H](O)c2cc(OC)c(OC)c(OC)c2)cc1O
Lookup: Pick one: a or b . Which one has the lower reported pIC50? Kindly state the label of the option you pick.
Found: b

---

System under test: Tubulin (Homo sapiens) (UniProt P68371+Q9H4B7+P0DPH7+P68366+Q13509+Q71U36+P04350+Q3ZCM7+P07437+P68363+Q9BQE3+Q6PEY2+Q13885+Q9BVA1+Q9BUF5)
Method notes: Inhibition of tubulin polymerization at 40 uM
Format: protein-complex assay
Property: inhibition (%)

Some solved cases for reference:
Compound: COc1cc2cc(OC)c1OCCOCCOc1ccc(cc1)[C@@H]1OC(C)(C)O[C@H]21
Reported result: 0
--
Compound: COc1cc2cc(OC)c1OCCOCCOc1ccc(cc1OC(C)=O)[C@H](OC(C)=O)[C@H]2OC(C)=O (relative stereo)
Reported result: 0
--
Compound: COc1cc2cc(OC)c1OCCOCCOc1ccc(cc1)[C@H](O)[C@H]2O
Reported result: 0
--
Compound: COc1cc2cc(OC)c1OCCCCCCOc1ccc(cc1)/C=C\2
Reported result: 60
--
Compound: COc1cc2cc(OC)c1OCCOCCOc1ccc(cc1)[C@@H](OC(C)=O)[C@H]2OC(C)=O (relative stereo)
Reported result: 0

a = COc1cc2cc(OC)c1OCCCCCCOc1ccc(cc1)[C@H](OC(C)=O)[C@H]2OC(C)=O
b = COc1cc2cc(OC)c1OCCOCCOc1ccc(cc1O)[C@H](O)[C@H]2O (relative stereo)
c = COc1cc2cc(OC)c1OCCCCCCOc1ccc(cc1)[C@H](O)[C@H]2O (relative stereo)
Lookup: Hey, can you sort those compounds up there by inhibition, smallest first? # output: labels, in the requested order
Found: a, b, c
